Target or test system: SOS1/KRAS WT (Homo sapiens (Human), UniProt Q07889)
Sequence (Q07889 564-1049): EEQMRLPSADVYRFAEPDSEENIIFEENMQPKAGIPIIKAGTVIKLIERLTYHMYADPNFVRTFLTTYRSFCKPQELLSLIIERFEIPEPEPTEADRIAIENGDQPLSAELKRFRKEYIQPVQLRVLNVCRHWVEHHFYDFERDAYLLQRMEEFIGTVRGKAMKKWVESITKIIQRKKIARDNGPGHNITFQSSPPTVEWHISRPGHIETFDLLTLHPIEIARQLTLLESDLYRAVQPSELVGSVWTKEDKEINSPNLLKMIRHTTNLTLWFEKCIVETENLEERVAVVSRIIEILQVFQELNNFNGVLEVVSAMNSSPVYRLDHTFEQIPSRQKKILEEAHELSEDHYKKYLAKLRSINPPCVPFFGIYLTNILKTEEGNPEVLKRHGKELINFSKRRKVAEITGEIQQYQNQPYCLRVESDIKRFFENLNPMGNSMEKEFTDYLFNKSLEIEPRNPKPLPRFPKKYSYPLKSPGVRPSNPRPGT
Measurement description: SOS1/KRAS WT HTRF binding assay (FRET-based protein-protein interaction)
Settings: inhibition of His6-SOS1 (aa564-1049, 40 nM) binding to GST-KRAS-WT (aa1-188, 40 nM); at least two independent replicates; read-out: SOS1/KRAS WT HTRF Binding assay pIC50 (converted)
Description: The capacity of compounds to inhibit SOS1 binding to KRAS-WT (wild-type) was quantified using a FRET-based protein-protein interaction assay. […] Binding of SOS1 to KRAS-WT results in an increased fluorescent signal at emission wavelength of 665 nm which can be detected on the EnVision plate reader. […] Following a further 4 hr incubation at room temperature, time-resolved fluorescence was measured on the EnVision plate reader. […]
Assay metric: IC50 (nM)
# unit: nM | format: bare number

// below: answered compounds
COC1(C)C(=O)N(C)c2cc3c(N[C@H](C)c4cccc(C(F)(F)C(C)(C)O)c4F)nnc(C)c3cc21 (stereo partly shown) [Compound 75] : 8.71
CCn1c(=O)n(C)c2cc3c(C)nnc(N[C@H](C)c4cccc(C(F)(F)CO)c4F)c3cc21 [Compound 19] : 9.12
COC1(C)C(=O)N(C)c2cc3c(N[C@H](C)c4cc(C)cc(C(F)(F)CO)c4C)nnc(C)c3cc21 (stereo partly shown) [Compound 182] : 9.77

Lab note: next compound to report on.
Please look up its IC50: Cc1nnc(N[C@H](C)c2cccc(C(F)F)c2F)c2cc3c(cc12)n(C)c(=O)n3C1CC1 [Compound 34]
9.77

----------
Target or test system: SOS1/KRAS WT (Homo sapiens (Human))
Measurement description: SOS1/KRAS WT HTRF binding assay (FRET-based protein-protein interaction)
Settings: inhibition of His6-SOS1 (aa564-1049, 40 nM) binding to GST-KRAS-WT (aa1-188, 40 nM); at least two independent replicates; read-out: SOS1/KRAS WT HTRF Binding assay pIC50 (converted)
Assay metric: IC50
A bare number is not enough; add the unit after it.

Cc1nnc(N[C@H](C)c2cccc(C(F)F)c2F)c2cc3c(cc12)n(C)c(=O)n3C(C)C [Compound 43] : 2.82 nM
CCC1(OC)C(=O)N(C)c2cc3c(N[C@H](C)c4cccc(C(F)(F)CO)c4F)nnc(C)c3cc21 (stereo partly shown) [Compound 207] : 8.51 nM
Cc1c(C(F)F)cccc1[C@@H](C)Nc1nnc(C)c2cc3c(cc12)n(C)c(=O)n3C [Compound 211] : 9.77 nM

Lab note: next molecule to report on.
Please look up its IC50: CCN1C(=O)C(C)(OC)c2cc3c(C)nnc(N[C@H](C)c4cccc(C(F)(F)CO)c4)c3cc21 (stereo partly shown) [Compound 171]
9.77 nM

----------
Target or test system: SOS1/KRAS WT (Homo sapiens (Human), UniProt Q07889)
Measurement description: SOS1/KRAS WT HTRF binding assay (FRET-based protein-protein interaction)
Settings: inhibition of His6-SOS1 (aa564-1049, 40 nM) binding to GST-KRAS-WT (aa1-188, 40 nM); at least two independent replicates; read-out: SOS1/KRAS WT HTRF Binding assay pIC50 (converted)
Assay metric: IC50

// below: answered molecules
Cc1c(C2CCNC2)cccc1[C@@H](C)Nc1nnc(C)c2cc3c(cc12)n(C)c(=O)n3C (stereo partly shown) [Compound 161] : 589 nM
Cc1nnc(N[C@H](C)c2cccc(C(F)(F)F)c2)c2cc3c(cc12)OCCC(=O)N3C [Compound 42] : 34.7 nM
COc1c([C@@H](C)Nc2nnc(C)c3cc4c(cc23)n(C)c(=O)n4C)cccc1C(F)(F)F [Compound 55] : 57.5 nM
Cc1c(C#N)cccc1[C@@H](C)Nc1nnc(C)c2cc3c(cc12)n(C)c(=O)n3C [Compound 39] : 44.7 nM

Please look up its IC50: Cc1nnc(N[C@H](C)c2cccc(C(F)(F)CO)c2F)c2cc3c(cc12)n(C)c(=O)n3C(C)(C)C [Compound 26]
14.5 nM

Please look up its IC50: Cc1nnc(N[C@H](C)c2cccc(C(F)(F)F)c2)c2cc3c(cc12)n(C)c(=O)n3C(C)C#N (stereo partly shown) [Compound 149]
10.2 nM

Please look up its IC50: Cc1nnc(N[C@H](C)c2cccc(C(F)(F)C(C)(C)O)c2)c2cc3c(cc12)n(C)c(=O)n3C [Compound 64]
8.13 nM

Hello, the source for this data is patent US20250197407A1, in case you need it.
